MIC values, listed per item
Test system: P. aeruginosa
Assay: MIC, broth microdilution, CDC/FDA Antibiotic Resistance Isolate Bank (Example 7, Tables 10, 15)
Format: cell-based
Details: Pseudomonas aeruginosa, P. aeruginosa KUB No. 5592, AR Bank # 95; read-out: MIC

[
  {
    "structure string": "NCC[C@H](O)C(=O)N[C@@H]1C[C@H](N)[C@@H](O[C@H]2O[C@H](CN)[C@@H](O)[C@H](O)[C@H]2O)[C@H](O)[C@H]1O[C@H]1O[C@H](CO)[C@@H](O)[C@H](N)[C@H]1O",
    "MIC (µg/mL)": 0.5
  },
  {
    "structure string": "CO/N=C(\\C(=O)N[C@@H]1C(=O)N2C(C(=O)[O-])=C(C[n+]3ccn4ncccc43)CS[C@H]12)c1nsc(N)n1",
    "MIC (µg/mL)": 1
  },
  {
    "structure string": "CC(C)(O/N=C(\\C(=O)N[C@@H]1C(=O)N2C(C(=O)[O-])=C(C[N+]3(CCNC(=O)c4ccc(O)c(O)c4Cl)CCCC3)CS[C@H]12)c1csc(N)n1)C(=O)O",
    "MIC (µg/mL)": 0.5
  },
  {
    "structure string": "C[C@H]1COc2c(N3CCN(C)CC3)c(F)cc3c(=O)c(C(=O)O)cn1c23",
    "MIC (µg/mL)": 32
  },
  {
    "structure string": "C[C@H]1[C@H](NC(=O)/C(=N\\OC(C)(C)C(=O)O)c2csc(N)n2)C(=O)N1S(=O)(=O)O",
    "MIC (µg/mL)": 16
  },
  {
    "structure string": "CN(C)c1cc(NC(=O)CNC(C)(C)C)c(O)c2c1C[C@H]1C[C@H]3[C@H](N(C)C)C(O)=C(C(N)=O)C(=O)[C@@]3(O)C(O)=C1C2=O",
    "MIC (µg/mL)": 2
  }
]
